# system_under_test: PRMT5-MEP50 enzyme complex (Homo sapiens, UniProt O14744)
# Construct: Full-length (FL)-PRMT5-MEP50 enzyme complex (recombinant proteins from baculovirus-transfected Sf21 cells: FL-PRMT5; MW=73837 kDa and FL-MEP50; MW=38614); made in house; host or cells: baculovirus-transfected Sf21 cells
# Sequence (O14744 whole entry): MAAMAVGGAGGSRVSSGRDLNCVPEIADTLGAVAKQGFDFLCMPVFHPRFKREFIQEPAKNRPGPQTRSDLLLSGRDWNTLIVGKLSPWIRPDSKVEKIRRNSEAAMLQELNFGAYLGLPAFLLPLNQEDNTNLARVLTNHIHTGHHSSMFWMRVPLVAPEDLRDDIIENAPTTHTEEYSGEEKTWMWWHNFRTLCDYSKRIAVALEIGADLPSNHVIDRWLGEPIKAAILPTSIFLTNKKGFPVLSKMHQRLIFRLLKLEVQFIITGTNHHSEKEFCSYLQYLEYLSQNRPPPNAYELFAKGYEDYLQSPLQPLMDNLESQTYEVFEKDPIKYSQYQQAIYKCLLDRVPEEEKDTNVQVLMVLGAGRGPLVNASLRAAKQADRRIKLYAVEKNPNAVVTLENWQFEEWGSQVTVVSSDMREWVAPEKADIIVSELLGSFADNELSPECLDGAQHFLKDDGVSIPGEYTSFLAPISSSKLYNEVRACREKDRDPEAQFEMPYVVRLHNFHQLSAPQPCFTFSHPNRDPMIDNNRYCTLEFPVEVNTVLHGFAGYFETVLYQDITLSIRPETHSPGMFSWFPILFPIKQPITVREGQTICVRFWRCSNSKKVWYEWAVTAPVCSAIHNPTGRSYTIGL
# Sequence (Q9BQA1 whole entry partner): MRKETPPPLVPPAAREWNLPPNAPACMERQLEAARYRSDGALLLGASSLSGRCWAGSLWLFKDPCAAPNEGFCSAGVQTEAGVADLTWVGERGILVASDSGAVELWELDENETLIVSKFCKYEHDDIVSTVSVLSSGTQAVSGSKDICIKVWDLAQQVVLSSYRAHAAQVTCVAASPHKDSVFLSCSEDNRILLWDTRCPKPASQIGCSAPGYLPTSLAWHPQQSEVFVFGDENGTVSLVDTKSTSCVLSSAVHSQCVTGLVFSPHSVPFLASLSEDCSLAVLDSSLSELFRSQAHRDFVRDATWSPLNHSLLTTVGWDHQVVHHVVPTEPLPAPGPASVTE
# experiment: PRMT5-MEP50 Enzyme Methylation Assay (Version B)
# Type: biochemical
# test_settings: first of two EC50s: 7 parameters biphasic model; read-out: Enzyme Methylation Assay Version B (EC50_1)
observed_property: EC50 (nM)
Give bare numbers, in nM.

{"compound": "CC(=O)N1CCC(Nc2cc(C(=O)N3CC[C@H](N4CCc5ccccc5C4)[C@@H](O)C3)c(F)cn2)C(F)(F)C1 (single isomer, unassigned) [Example 86]", "observed_property": "EC50", "unit_string": "nM", "numeric_readout": 5.3}
{"compound": "O=C(c1cn2cc(Br)ccc2n1)N1CC[C@@H](N2CCc3ccccc3C2)[C@H](O)C1 (single isomer, unassigned)", "observed_property": "EC50", "unit_string": "nM", "numeric_readout": 13}
{"compound": "O=C(c1ccc(-c2ncnn2C2CC2)cc1)N1CC[C@H](N2CCc3ccccc3C2)[C@@H](O)C1", "observed_property": "EC50", "unit_string": "nM", "numeric_readout": 14}
{"compound": "CC(=O)N1CCC(Nc2nccc(C(=O)N3CC[C@H](N4CCc5ccccc5C4)[C@@H](O)C3)c2F)C(F)(F)C1 (single isomer, unassigned) [Example 15]", "observed_property": "EC50", "unit_string": "nM", "numeric_readout": 6.8}
{"compound": "CCOc1cc(C(=O)N2C3CCC2COC3)ccc1C(=O)N1CC[C@H](N2CCc3ccccc3C2)[C@@H](O)C1", "observed_property": "EC50", "unit_string": "nM", "numeric_readout": 23}
{"compound": "CC(=O)N1CCC(Nc2cc(C(=O)N3CC[C@H](N4CCc5ccccc5C4)[C@@H](O)C3)c(Cl)cn2)CC1", "observed_property": "EC50", "unit_string": "nM", "numeric_readout": 11}

I need EC50 for every entry listed below, if you could help.
1. O=C(c1ccc(C(=O)N2C3CCC2COC3)cc1)N1CC[C@H](N2CCc3ccc(F)cc3C2)[C@@H](O)C1
2. CC(=O)N1CCC(Nc2cc(C(=O)N3CCC(N4Cc5ccccc5C(F)(F)C4)C(O)C3)c(Cl)cn2)CC1 (single isomer, unassigned) [Example 25]

19
841

I need EC50 for every entry listed below, if you could help.
1. O=C(c1ccc(C(=O)N2C3CCC2COC3)cc1)N1CC[C@@H](N2CCc3ccc(F)cc3C2)[C@H](O)C1
2. CC1OC(=O)Nc2cc(C(=O)N3CC[C@H](N4CCc5ccccc5C4)[C@@H](O)C3)ccc21 (single isomer, unassigned) [Example 91]

1: 12400; 2: 127
